Every entry's value here was drawn from patent US7659404B2.

The compounds listed here are annotated with their fold resistance (FR), strain H.
Tested on: clinically isolated HIV strain H
Assay type: cell-based
TEST_SETTINGS: FR=EC50(mutant strain)/EC50(HIV-1 strain LAI)
MEASURE_NAME: fold resistance (FR), strain H

• CC(C)CN(CC(O)C(Cc1ccccc1)NC(=O)OC1CNC(=O)C1)S(=O)(=O)c1ccc2nc(NC(=O)CN(C)C)sc2c1 (stereo not drawn) = 0.6
• CC(C)CN(CC(O)C(Cc1ccccc1)NC(=O)OC1CCOC1)S(=O)(=O)c1ccc2nc(NCCN(C)C)sc2c1 (stereo not drawn) = 4.6
• CC(=O)N(C)c1nc2ccc(S(=O)(=O)N(Cc3ccccn3)CC(O)C(Cc3ccccc3)NC(=O)OC3COC4OCCC34)cc2s1 (stereo not drawn) = 6.8
• CC(=O)N(C)c1nc2ccc(S(=O)(=O)N(CC(C)C)C[C@@H](O)[C@H](Cc3ccccc3)NC(=O)c3cccc(N)c3C)cc2s1 = 5.0
• Cc1cc(C#N)cc(C)c1OCC(=O)N[C@@H](Cc1ccccc1)[C@H](O)CN(CC(C)C)S(=O)(=O)c1ccc2nc(NC(=O)CN3CCCC3)sc2c1 = 3.6
• CC(C)CN(C[C@@H](O)[C@H](Cc1ccccc1)NC(=O)O[C@H]1CO[C@H]2OCC[C@H]21)S(=O)(=O)c1ccc2nc(NCCN(C)C)sc2c1 = 0.3

---

Tested on: clinically isolated HIV strain H
Assay type: cell-based
TEST_SETTINGS: FR=EC50(mutant strain)/EC50(HIV-1 strain LAI)
Experimental: HIV- or mock-infected MT4 cells were incubated for five days in the presence of various concentrations of the inhibitor. […] Cell viability is measured by measuring the concentration of MTT, a yellow, water soluble tetrazolium dye that is converted to a purple, water insoluble formazan in the mitochondria of living cells only. Upon solubilization of the resulting formazan crystals with isopropanol, the absorbance of the solution is monitored at 540 nm. […]
The compounds listed here are annotated with their fold resistance (FR), strain H.
MEASURE_NAME: fold resistance (FR), strain H

• CC(C)CN(C[C@@H](O)[C@H](Cc1ccccc1)NC(=O)O[C@H]1CO[C@H]2OCC[C@H]21)S(=O)(=O)c1ccc2nc(N3CCN(C)C3=O)sc2c1 [Compound 25] = 4.7
• CC(C)CN(C[C@@H](O)[C@H](Cc1ccccc1)NC(=O)OCc1cncs1)S(=O)(=O)c1ccc2nc(NCCN3CCCC3)sc2c1 [Compound 49] = 3.6
• CC(=O)N(C)c1nc2ccc(S(=O)(=O)N(CC(C)C)C[C@@H](O)[C@H](Cc3ccccc3)NC(=O)OCc3cccnc3)cc2s1 [Compound 81] = 5.6

---

System: HIV-1 strain LAI
TEST_DETAILS: Cellular anti-HIV assay in MT4 cells (MTT), wild type laboratory strain
Format: cell-based
TEST_SETTINGS: Human immunodeficiency virus 1, MT4, 120 h, read-out: EC50 value against HIV-1 strain LAI
MEASURE_NAME: EC50

* CC(C)CN(CC(O)C(Cc1ccccc1)NC(=O)OC1CCOC1)S(=O)(=O)c1ccc2nc(NCCN(C)C)sc2c1 (stereo not drawn) | < 50 nM
* CC(C)CN(CC(O)C(Cc1ccccc1)NC(=O)OC1COCC1N(C)C)S(=O)(=O)c1ccc2nc(NCCN(C)C)sc2c1 (stereo not drawn) | 50 to 500 nM
* CC(C)CN(CC(O)C(Cc1ccccc1)NC(=O)OC1COC2OCCC12)S(=O)(=O)c1ccc2nc(NCC[N+](C)(C)[O-])sc2c1 (stereo not drawn) | > 500 nM

---

The molecules listed here are annotated with their concentration at 3 h.
TEST_DETAILS: Pharmacokinetics after oral dosing in rats (LC-MS)
Type: in vivo, Whistar rats
TEST_SETTINGS: Wistar, blood, oral, 10 mg/kg; or, rat, 10 mpk, DMSO; read-out: C3hours
MEASURE_NAME: concentration at 3 h

• CC(C)CN(C[C@@H](O)[C@H](Cc1ccccc1)NC(=O)O[C@H]1CO[C@H]2OCC[C@H]21)S(=O)(=O)c1ccc2nc(NCCN3CCCC3)sc2c1 [Compound 20] = 401 ng/mL
• CC(C)CN(C[C@@H](O)[C@H](Cc1ccccc1)NC(=O)O[C@H]1CO[C@H]2OCC[C@H]21)S(=O)(=O)c1ccc2nc(N(C)CCCN(C)C)sc2c1 [Compound 88] = 225 ng/mL
• CC(C)CN(C[C@@H](O)[C@H](Cc1ccccc1)NC(=O)O[C@H]1CCOC1)S(=O)(=O)c1ccc2nc(NCCN(C)C)sc2c1 [Compound 90] = 684 ng/mL

---

Test system: clinically isolated HIV strain H
Assay type: cell-based
TEST_SETTINGS: FR=EC50(mutant strain)/EC50(HIV-1 strain LAI)
MEASURE_NAME: fold resistance (FR), strain H

• CC(C)CN(C[C@@H](O)[C@H](Cc1ccccc1)NC(=O)O[C@H]1CO[C@H]2OCC[C@H]21)S(=O)(=O)c1ccc2nc(NC(=O)CN3CCNCC3)sc2c1 = 0.8
• Cc1cccc(C)c1OCC(=O)N[C@@H](Cc1ccccc1)[C@H](O)CN(CC(C)C)S(=O)(=O)c1ccc2nc(NC(=O)CN3CCCC3)sc2c1 = 4.1
• CC(C)CN(CC(O)C(Cc1ccccc1)NC(=O)OC1COCC1N(C)C)S(=O)(=O)c1ccc2nc(NCCN(C)C)sc2c1 (stereo not drawn) = 29.4

---

TEST_DETAILS: Pharmacokinetics after oral dosing in rats (LC-MS)
Format: in vivo, Whistar rats
TEST_SETTINGS: Wistar, blood, po, 10 mg/kg; or, rat, 10 mpk, DMSO
Procedure: The pharmacokinetic properties of compounds 20, 88 and 90 were tested on rats and dogs. The compounds were evaluated in Whistar rats, source Iffa Credo, weighing approximately 350 g. Before dosing the animals were fasted overnight (approximately 12 h fasting period). The compounds were dissolved in DMSO. The results represented in the table concern the results from the oral dosing of the compounds. […] The amount of the compound in the biological sample was determined using LC-MS. […]
MEASURE_NAME: Cmax (ng/mL)

• CC(C)CN(C[C@@H](O)[C@H](Cc1ccccc1)NC(=O)O[C@H]1CCOC1)S(=O)(=O)c1ccc2nc(NCCN(C)C)sc2c1 = 893
• CC(C)CN(C[C@@H](O)[C@H](Cc1ccccc1)NC(=O)O[C@H]1CO[C@H]2OCC[C@H]21)S(=O)(=O)c1ccc2nc(N(C)CCCN(C)C)sc2c1 = 254
• CC(C)CN(C[C@@H](O)[C@H](Cc1ccccc1)NC(=O)O[C@H]1CO[C@H]2OCC[C@H]21)S(=O)(=O)c1ccc2nc(NCCN3CCCC3)sc2c1 = 1420

---

The molecules listed here are annotated with their fold resistance (FR), strain S.
Test system: virus strain S (R13080)
TEST_DETAILS: microbe, parasite or virus in culture
Assay type: cell-based, HIV
TEST_SETTINGS: FR=EC50(mutant strain)/EC50(HIV-1 strain LAI); strain S
MEASURE_NAME: fold resistance (FR), strain S

• CC(C)CN(C[C@@H](O)[C@H](Cc1ccccc1)NC(=O)OCc1cccnc1)S(=O)(=O)c1ccc2nc(NCCN3CCCC3)sc2c1 = 37.6
• CC(C)CN(C[C@@H](O)[C@H](Cc1ccccc1)NC(=O)OCc1cncs1)S(=O)(=O)c1ccc2nc(NCCCN(C)C)sc2c1 = 2.1
• CC(C)CN(CC(O)C(Cc1ccccc1)NC(=O)OC1COC2OCCC12)S(=O)(=O)c1ccc2nc(NC(=O)CN3CCOCC3)sc2c1 (mixture of isomers) = 0.5

---

The compounds listed here are annotated with their fold resistance (FR), strain D.
Tested on: clinically isolated HIV strain D
TEST_DETAILS: Antiviral spectrum, cellular assay (fold resistance), strain D
Type: cell-based
TEST_SETTINGS: FR=EC50(mutant strain)/EC50(HIV-1 strain LAI)
MEASURE_NAME: fold resistance (FR), strain D

• CC(C)CN(C[C@@H](O)[C@H](Cc1ccccc1)NC(=O)O[C@H]1CO[C@H]2OCC[C@H]21)S(=O)(=O)c1ccc2nc(NC(=O)CN3CCCC3)sc2c1.O=C(O)/C=C/C(=O)O = 0.2
• CC(C)CN(C[C@@H](O)[C@H](Cc1ccccc1)NC(=O)O[C@H]1CCOC1)S(=O)(=O)c1ccc2nc(NC(=O)CN3CCNCC3)sc2c1 = 0.5
• CC(C)CN(CC(O)C(Cc1ccccc1)NC(=O)OC1COC2OCCC12)S(=O)(=O)c1ccc2nc(NC(=O)CN3CCCC3)sc2c1 (mixture of isomers) [Compound 7] = 0.5

---

System: clinically isolated HIV strain A
TEST_DETAILS: Antiviral spectrum, cellular assay (fold resistance), strain A
Type: cell-based
TEST_SETTINGS: FR=EC50(mutant strain)/EC50(HIV-1 strain LAI)
The compounds listed here are annotated with their fold resistance (FR), strain A.
MEASURE_NAME: fold resistance (FR), strain A

* Cc1cccc(C)c1OCC(=O)N[C@@H](Cc1ccccc1)[C@H](O)CN(CC(C)C)S(=O)(=O)c1ccc2nc(NC(=O)CN3CCCC3)sc2c1 | 6.1
* CC(C)CN(CC(O)C(Cc1ccccc1)NC(=O)OC1COC2OCCC12)S(=O)(=O)c1ccc2nc(NC(=O)CN3CCCC3)sc2c1 (mixture of isomers) [Compound 7] | 0.2
* CC(=O)N(C)c1nc2ccc(S(=O)(=O)N(CC(C)C)CC(O)C(Cc3ccccc3)NC(=O)OC3COC4OCCC34)cc2s1 (mixture of isomers) | 1.5
* CC(C)CN(C[C@@H](O)[C@H](Cc1ccccc1)NC(=O)O[C@H]1CO[C@H]2OCC[C@H]21)S(=O)(=O)c1ccc2nc(NC(=O)CN3CCCC3)sc2c1.O=C(O)/C=C/C(=O)O | 0.2
* CC(C)CN(CC(O)C(Cc1ccccc1)NC(=O)OC1COC2OCCC12)S(=O)(=O)c1ccc2nc(NC(=O)CN(C)C)sc2c1 (stereo not drawn) [Compound 11] | 0.3
* CC(C)CN(CC(O)C(Cc1ccccc1)NC(=O)OC1COC2OCCC12)S(=O)(=O)c1ccc2nc(NC(=O)CN3CCCC3)sc2c1 (stereo not drawn) [Compound 12] | 0.3
